Parameter: pIC50. Scope: all listed entries.
# TEST_TARGET: LRRK2 WT (Homo sapiens, UniProt Q5S007)
# Construct: purchased Life Technologies PR8604B
# Sequence (Q5S007 whole entry): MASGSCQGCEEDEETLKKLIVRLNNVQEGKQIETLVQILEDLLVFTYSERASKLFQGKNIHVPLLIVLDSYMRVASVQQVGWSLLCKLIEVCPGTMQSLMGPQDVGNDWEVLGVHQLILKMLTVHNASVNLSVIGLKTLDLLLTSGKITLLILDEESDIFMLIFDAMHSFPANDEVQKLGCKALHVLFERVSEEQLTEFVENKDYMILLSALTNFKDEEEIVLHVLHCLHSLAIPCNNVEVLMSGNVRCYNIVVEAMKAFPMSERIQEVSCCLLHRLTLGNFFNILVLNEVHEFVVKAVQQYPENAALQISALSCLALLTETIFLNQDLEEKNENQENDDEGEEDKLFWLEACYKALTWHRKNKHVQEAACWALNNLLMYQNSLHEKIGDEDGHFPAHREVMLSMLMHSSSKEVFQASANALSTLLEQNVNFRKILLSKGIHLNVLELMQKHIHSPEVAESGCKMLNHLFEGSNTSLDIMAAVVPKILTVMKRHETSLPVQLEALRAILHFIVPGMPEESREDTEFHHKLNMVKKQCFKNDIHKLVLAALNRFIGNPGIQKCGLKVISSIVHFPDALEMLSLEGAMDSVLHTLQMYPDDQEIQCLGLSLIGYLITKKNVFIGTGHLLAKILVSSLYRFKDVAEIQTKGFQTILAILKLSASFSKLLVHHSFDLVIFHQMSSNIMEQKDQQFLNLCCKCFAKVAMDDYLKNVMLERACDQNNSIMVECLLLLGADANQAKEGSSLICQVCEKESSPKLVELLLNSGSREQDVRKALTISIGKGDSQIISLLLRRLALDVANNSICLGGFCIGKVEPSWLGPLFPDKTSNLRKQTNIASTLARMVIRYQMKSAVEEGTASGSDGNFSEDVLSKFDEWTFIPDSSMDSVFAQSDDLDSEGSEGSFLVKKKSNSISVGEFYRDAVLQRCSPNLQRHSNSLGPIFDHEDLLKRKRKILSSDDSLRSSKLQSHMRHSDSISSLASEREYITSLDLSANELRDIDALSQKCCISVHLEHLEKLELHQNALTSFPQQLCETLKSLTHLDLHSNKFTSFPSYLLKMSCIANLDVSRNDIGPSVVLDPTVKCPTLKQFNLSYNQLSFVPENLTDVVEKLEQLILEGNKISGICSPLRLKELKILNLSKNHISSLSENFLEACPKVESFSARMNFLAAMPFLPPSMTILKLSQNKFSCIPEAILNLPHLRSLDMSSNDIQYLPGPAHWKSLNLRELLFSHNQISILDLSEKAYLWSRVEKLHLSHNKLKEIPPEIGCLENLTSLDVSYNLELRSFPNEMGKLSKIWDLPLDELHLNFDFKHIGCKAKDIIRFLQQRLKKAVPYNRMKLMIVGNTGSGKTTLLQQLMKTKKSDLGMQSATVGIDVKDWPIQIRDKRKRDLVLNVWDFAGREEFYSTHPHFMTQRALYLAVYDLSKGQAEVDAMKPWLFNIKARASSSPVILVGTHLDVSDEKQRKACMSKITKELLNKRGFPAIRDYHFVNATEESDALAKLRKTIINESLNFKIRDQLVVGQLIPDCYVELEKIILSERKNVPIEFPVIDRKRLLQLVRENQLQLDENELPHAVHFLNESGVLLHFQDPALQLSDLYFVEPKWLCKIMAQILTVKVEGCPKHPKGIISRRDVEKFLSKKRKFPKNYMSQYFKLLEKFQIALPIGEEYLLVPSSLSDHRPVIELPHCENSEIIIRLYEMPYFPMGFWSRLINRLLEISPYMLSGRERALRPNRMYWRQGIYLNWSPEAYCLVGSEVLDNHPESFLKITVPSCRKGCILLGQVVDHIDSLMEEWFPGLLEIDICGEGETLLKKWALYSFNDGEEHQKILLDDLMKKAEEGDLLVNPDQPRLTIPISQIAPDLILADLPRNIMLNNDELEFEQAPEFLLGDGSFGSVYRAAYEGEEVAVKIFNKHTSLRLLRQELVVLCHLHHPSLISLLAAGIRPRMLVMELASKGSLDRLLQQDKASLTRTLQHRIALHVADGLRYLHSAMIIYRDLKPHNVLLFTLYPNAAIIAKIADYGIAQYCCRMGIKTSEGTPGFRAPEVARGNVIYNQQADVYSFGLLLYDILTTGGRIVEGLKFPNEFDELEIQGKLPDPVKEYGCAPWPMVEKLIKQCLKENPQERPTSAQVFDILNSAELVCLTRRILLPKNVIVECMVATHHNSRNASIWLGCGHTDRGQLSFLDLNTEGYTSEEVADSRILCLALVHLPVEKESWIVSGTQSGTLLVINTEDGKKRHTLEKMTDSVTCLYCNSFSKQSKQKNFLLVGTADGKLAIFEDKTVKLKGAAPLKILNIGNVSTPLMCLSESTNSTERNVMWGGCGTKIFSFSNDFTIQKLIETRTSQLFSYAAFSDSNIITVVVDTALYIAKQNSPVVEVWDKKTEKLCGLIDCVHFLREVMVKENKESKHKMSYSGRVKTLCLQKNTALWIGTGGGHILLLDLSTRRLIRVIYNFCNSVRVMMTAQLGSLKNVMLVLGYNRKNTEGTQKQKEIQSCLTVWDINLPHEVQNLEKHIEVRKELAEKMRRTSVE
# ASSAY_PROTOCOL: LRRK2 Kinase Activity Assay (LanthaScreen TR-FRET), wild type
# Type: biochemical
# MEASUREMENT_CONDITIONS: recombinant wild type LRRK2, 25 μM ATP, 400 nM LRRKtide, 60 min; class symbols
pIC50: −log10 of the molar value.

A selection of reference data follows.
COMPOUND: C[C@H]1C[C@@H](Nc2ccc3[nH]nc(-c4cnco4)c3c2)c2ccc(C#N)cc21 (single isomer, unassigned) [Example 169, enantiomer 1]
REPORTED_PROPERTY: pIC50
MEASURED_RESULT: 6.00 to 7.00
--
COMPOUND: N#Cc1ccc2c(c1)CCC[C@@H]2Nc1ccc2[nH]nc(C3=CCOCC3)c2c1 (single isomer, unassigned) [Example 88]
REPORTED_PROPERTY: pIC50
MEASURED_RESULT: 6.00 to 7.00
--
COMPOUND: N#Cc1ccc2c(c1)CC[C@@H]2Oc1ccc2[nH]nc(I)c2c1 [Example 13]
REPORTED_PROPERTY: pIC50
MEASURED_RESULT: 6.00 to 7.00
--
COMPOUND: N#Cc1ccc2c(c1)CC[C@@H]2Nc1ccc2[nH]nc(-c3ccoc3)c2c1 (single isomer, unassigned) [Example 11, enantiomer 1]
REPORTED_PROPERTY: pIC50
MEASURED_RESULT: 6.00 to 7.00
--
COMPOUND: Cc1ncc(-c2n[nH]c3ccc(N[C@H]4CCCc5cc(C#N)c(C)nc54)cc23)o1 (single isomer, unassigned) [Example 159, enantiomer 2]
REPORTED_PROPERTY: pIC50
MEASURED_RESULT: > 7.00

Query: Lab request: please report pIC50 under test system LRRK2 WT (Homo sapiens, UniProt Q5S007) for N#Cc1ccc2c(n1)CCC[C@@H]2Oc1ccc2[nH]nc(I)c2c1 (single isomer, unassigned) [Example 135, enantiomer 1]
Response: 6.00 to 7.00

Query: Lab request: please report pIC50 under test system LRRK2 WT (Homo sapiens, UniProt Q5S007) for N#Cc1cc2c(cc1F)[C@@H](Nc1ccc3[nH]nc(-c4cnco4)c3c1)CC2 (single isomer, unassigned) [Example 25, enantiomer 1]
Response: > 7.00

Query: Lab request: please report pIC50 under test system LRRK2 WT (Homo sapiens, UniProt Q5S007) for Cc1nc2c(cc1C#N)CCC[C@@H]2Nc1ccc2[nH]nc(-c3cnco3)c2c1 (single isomer, unassigned) [Example 106, enantiomer 1]
Response: 6.00 to 7.00
